tested on: CCR2 mRNA; assay: Inhibition of CCR2 mRNA level in MDSCs; type: cell-based; conditions: Mus musculus, 2 h, read-out: Suppression Rate (inhibition of CCR2 mRNA levels)
Property name: inhibition at 1 µM (%)

INSERT INTO results (compound, reported_result) VALUES
  ('C=C1C(=O)O[C@@H]2[C@H]3C(C)=CC[C@@]34O[C@@]4(C)CC[C@@H]12 [Arg, Arglabin, reference compound]', 22.3),
  ('C=C1C(=O)O[C@H]2[C@H]1CCC(C)=C1CC[C@@](C)(OC(=O)N3CCCC3)[C@@H]12 [Compound 82]', 28.5),
  ('C=C1C(=O)O[C@H]2[C@H]1CCC(C)=C1CC[C@@](C)(OC(=O)NCCN3CCOCC3)[C@@H]12 [Compound 78]', 23),
  ('C=C1C(=O)O[C@@H]2[C@@H]3[C@]4(CC[C@@]3(C)O)C[C@]4(C)CC[C@@H]12 [Compound 1]', 35.2),
  ('C=C1C(=O)O[C@H]2[C@H]1CCC(C)=C1CC[C@@](C)(OC(=O)N3CCCCC3)[C@@H]12 [Compound 83]', 17);
